Collected literature values of Ki measured for Apoptosis regulator Bcl-2 (Homo sapiens, UniProt P10415).

compound	data-value
C[C@@H]1[C@@H](NC(=O)[C@@H]2[C@H]([C@H](C)O)[C@H](CO)ON2Cc2cccc(CN(CCCc3ccccc3)CCN(C)C)c2)C[C@H]2C[C@@H]1C2(C)C	< 800 nM
C[C@H](O)[C@@H]1[C@H](CO)ON(Cc2cccc(CN(CCN(C)C)Cc3ccccc3)c2)[C@@H]1C(=O)NCCCN(C)C	6000 to 50000 nM
C[C@@H]1[C@@H](NC(=O)[C@@H]2[C@H]([C@H](C)O)[C@H](CO)ON2Cc2cccc(N(CCc3ccccc3)CCN(C)C)c2)C[C@H]2C[C@@H]1C2(C)C	< 800 nM
C[C@@H]1[C@@H](NC(=O)[C@@H]2[C@H]([C@H](C)O)[C@H](CO)ON2Cc2cccc(CN(CCc3ccccc3)CCN(C)C)c2)C[C@H]2C[C@@H]1C2(C)C	< 800 nM
CO[C@H]1CC[C@H](CNc2ccc(S(=O)(=O)NC(=O)c3ccc(N4CCN(CC5=C(c6ccc(Cl)cc6)CC(C)(C)CC5)CC4)cc3Oc3cnc4[nH]ccc4c3)cc2[N+](=O)[O-])CC1	< 0.01 nM
CC(O)C1C(CO)ON(Cc2cccc(CN(CCN(C)C)Cc3ccccc3N3CCN(C)CC3)c2)C1C(=O)NC1CC2CC(C1C)C2(C)C (stereo not drawn)	< 800 nM

Task: Fill in: Ki of CC(O)C1C(CO)ON(Cc2cccc(CN3c4ccccc4CC3CN(C)C)c2)C1C(=O)NC1CC2CC(C1C)C2(C)C (stereo not drawn) is ___
Result: < 800 nM

Task: Fill in: Ki of C[C@@H]1[C@@H](NC(=O)[C@@H]2[C@H]([C@H](C)O)[C@H](CO)ON2Cc2cccc(-c3cccc([S+](C)[O-])c3)c2)C[C@H]2C[C@@H]1C2(C)C (stereo partly drawn) is ___
Result: < 800 nM

Task: Fill in: Ki of CC(O)C1C(CO)ON(Cc2cccc(C(=O)NC(CC3CCCCC3)CN(C)C)c2)C1C(=O)NC1CC2CC(C1C)C2(C)C (stereo not drawn) is ___
Result: < 800 nM

Task: Fill in: Ki of CC(O)C1C(CO)ON(Cc2cccc(CN(CCN(C)C)Cc3ccoc3)c2)C1C(=O)NC1CC2CC(C1C)C2(C)C (stereo not drawn) is ___
Result: < 800 nM

Task: Fill in: Ki of O=S(=O)(NCc1cccc(CN(Cc2ccccc2SC(F)(F)F)S(=O)(=O)c2cc(Cl)cc(Cl)c2O)c1)c1cc(Cl)cc(Cl)c1O is ___
Result: 96 nM

Task: Fill in: Ki of C[C@@H]1[C@@H](NC(=O)[C@@H]2[C@H]([C@H](C)O)[C@H](CO)ON2Cc2cccc(-c3ccc(NS(C)(=O)=O)cc3)c2)C[C@H]2C[C@@H]1C2(C)C is ___
Result: < 800 nM
